Attribution: patent US20230416394A1

Biological target: T1, human CD39 (human, UniProt P49961 1-510)
T1 sequence: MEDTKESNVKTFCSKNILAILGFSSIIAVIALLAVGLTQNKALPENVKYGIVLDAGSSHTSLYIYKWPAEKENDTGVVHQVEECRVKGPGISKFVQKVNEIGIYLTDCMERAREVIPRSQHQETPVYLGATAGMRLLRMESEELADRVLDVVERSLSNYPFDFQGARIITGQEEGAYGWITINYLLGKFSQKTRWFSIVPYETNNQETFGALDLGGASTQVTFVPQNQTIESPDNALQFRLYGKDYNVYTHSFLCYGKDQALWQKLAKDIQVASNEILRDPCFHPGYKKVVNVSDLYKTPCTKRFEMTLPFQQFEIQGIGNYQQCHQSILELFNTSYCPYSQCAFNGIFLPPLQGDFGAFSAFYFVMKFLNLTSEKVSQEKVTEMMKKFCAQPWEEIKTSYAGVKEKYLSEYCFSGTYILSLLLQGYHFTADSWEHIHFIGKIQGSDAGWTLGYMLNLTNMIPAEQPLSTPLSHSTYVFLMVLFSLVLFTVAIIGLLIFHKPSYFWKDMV
Experiment: cell-based or functional assay
experimental endpoint: ATPase inhibition on SK-MEL-28 cells, IC50 (nM)
The reply should be a number in nM, with the unit left off.

Task: Specify measured ATPase inhibition on SK-MEL-28 cells, IC50 for hu23.211 (antibody, V domains shown) VH: EVQLVQSGAEVKKPGASVKVSCKASGYTLKDTFLHWVRQAPGQRLEWMGRIDPANGNIKYDPKFQGRVTITADTSSNTAYMELSSLRSEDTAVYYCANSPYYYGSGYRIFDVWGQGTLVTVSS VL: EIVLTQSPATLSLSPGERATLSCSAFSSVNYMHWYQQKPGQAPRLLIYTTSNLASGIPARFSGSGSGTDYTLTISSLEPEDFAVYYCQQRSTYPFTFGQGTKLEIK .
Output: 0.386

Task: Specify measured ATPase inhibition on SK-MEL-28 cells, IC50 for hu23.H5L5 (antibody, V domains shown) VH: QVQLVQSGAEVKKPGASVKVSCKASGYNLKDTFLHWVRQAPGQGLEWMGRIDPANGNIKYDPKFQGRVTITADTSANTAYMELISLRSEDTAVYYCANSPYYYGSGYRIFDVWGQGTTVTVSS VL: QIVLTQSPATLSLSPGERATLSCSAFSSVNYMHWYQQKPGQAPRLLIYTTSNLASGIPTRFSGSGSGTSYTLTISSLEPEDFAVYYCQQRSTYPFTFGQGTKLEIK .
Output: 0.122

Then this binder:
Task: Specify measured ATPase inhibition on SK-MEL-28 cells, IC50 for hu23.201 (antibody, V domains shown) VH: QVQLVQSGAEVKKPGASVKVSCKASGYTLKDTFLHWVRQAPGQRLEWMGRIDPANGNIKYDPKFQGRVTLTADTSSNTAYMELSSLRSEDTAVYYCANSPYYYGSGYRIFDVWGQGTLVTVSS VL: EIVLTQSPATLSLSPGERATLSCSAFSSVNYMHWYQQKPGQSPRLLIYTTSNLASGIPARFSGSGSGTDYTLTISSLEPEDFAVYYCQQRSTYPFTFGQGTKLEIK .
Output: 0.264
